Test: clinical
Conditions: human, in vivo, 3 mg, Mean plasma concentration of nalmefene, 3 mg + […] Intravail IN; Hour 0.50
MEASUREMENT LABEL: concentration at 0.5 h (ng/mL)
Give bare numbers, in ng/mL.

Quick check: concentration at 0.5 h of C=C1CC[C@@]2(O)[C@H]3Cc4ccc(O)c5c4[C@@]2(CCN3CC2CC2)[C@H]1O5 ? 3.2

* * *

Assay: clinical
Details: human, in vivo, 3 mg, Mean plasma concentration of nalmefene, 3 mg + […] Intravail IN; Hour 60.0
MEASUREMENT LABEL: concentration at 60 h (ng/mL)
Numbers only, in ng/mL.

Would you mind telling me what concentration at 60 h value was observed for C=C1CC[C@@]2(O)[C@H]3Cc4ccc(O)c5c4[C@@]2(CCN3CC2CC2)[C@H]1O5 ? 0

* * *

Assay: clinical
Settings: human, in vivo, 3 mg, Mean plasma concentration of nalmefene, 3 mg IN; Hour 1.0
MEASUREMENT LABEL: concentration at 1 h (ng/mL)
Answers are plain numbers, in ng/mL.

Please look up its concentration at 1 h: C=C1CC[C@@]2(O)[C@H]3Cc4ccc(O)c5c4[C@@]2(CCN3CC2CC2)[C@H]1O5 1.68

* * *

Test: clinical
Conditions: human, in vivo, 3 mg, AUC0-t, 3 mg plus […] Intravail IN; mean, N = 14
MEASUREMENT LABEL: AUC(0-t) (ng·h/mL)
Numbers only, in ng·h/mL.

Value lookup for AUC(0-t); key = C=C1CC[C@@]2(O)[C@H]3Cc4ccc(O)c5c4[C@@]2(CCN3CC2CC2)[C@H]1O5 17.3

* * *

Assay: clinical
Details: human, in vivo, 3 mg, Mean plasma concentration of nalmefene, 3 mg + […] Intravail IN; Hour 4.0
MEASUREMENT LABEL: concentration at 4 h (ng/mL)
Numbers only, in ng/mL.

concentration at 4 h lookup needed for C=C1CC[C@@]2(O)[C@H]3Cc4ccc(O)c5c4[C@@]2(CCN3CC2CC2)[C@H]1O5 [Nalmefene] , thanks. 1.32

* * *

Experiment: clinical
Settings: human, in vivo, 1.5 mg, Mean plasma concentration of nalmefene, 1.5 mg IN; Hour 36.0
MEASUREMENT LABEL: concentration at 36 h (ng/mL)
Numbers only, in ng/mL.

If you can, please state the reported concentration at 36 h value of C=C1CC[C@@]2(O)[C@H]3Cc4ccc(O)c5c4[C@@]2(CCN3CC2CC2)[C@H]1O5 [Nalmefene] . 0

* * *

Assay: clinical
Conditions: human, in vivo, 1.5 mg, Mean plasma concentration of nalmefene, 1.5 mg IM; Hour 48.0
MEASUREMENT LABEL: concentration at 48 h (ng/mL)
Answers are plain numbers, in ng/mL.

Suppose we examine the compound C=C1CC[C@@]2(O)[C@H]3Cc4ccc(O)c5c4[C@@]2(CCN3CC2CC2)[C@H]1O5 [Nalmefene] ; what concentration at 48 h value has been reported? 0

* * *

Assay: clinical
Conditions: human, in vivo, 3 mg, Mean plasma concentration of nalmefene, 3 mg IN; Hour 0.0
MEASUREMENT LABEL: concentration at 0 h (ng/mL)
Numbers only, in ng/mL.

Can you look up the measured concentration at 0 h of C=C1CC[C@@]2(O)[C@H]3Cc4ccc(O)c5c4[C@@]2(CCN3CC2CC2)[C@H]1O5 for me? 0

* * *

Assay: clinical
Conditions: human, in vivo, 3 mg, Mean plasma concentration of nalmefene, 3 mg IN; Hour 60.0
MEASUREMENT LABEL: concentration at 60 h (ng/mL)
Numbers only, in ng/mL.

// query concentration at 60 h value for entry C=C1CC[C@@]2(O)[C@H]3Cc4ccc(O)c5c4[C@@]2(CCN3CC2CC2)[C@H]1O5 [Nalmefene] 0

* * *

Assay: clinical
Details: human, in vivo, 3 mg, Mean plasma concentration of nalmefene, 3 mg + […] Intravail IN; Hour 0.0
MEASUREMENT LABEL: concentration at 0 h (ng/mL)
Answers are plain numbers, in ng/mL.

So what's the measured concentration at 0 h for this one? C=C1CC[C@@]2(O)[C@H]3Cc4ccc(O)c5c4[C@@]2(CCN3CC2CC2)[C@H]1O5 0

* * *

Test: clinical
Settings: human, in vivo, 3 mg, Mean plasma concentration of nalmefene, 3 mg + […] Intravail IN; Hour 72.0
MEASUREMENT LABEL: concentration at 72 h (µg/mL)
Give bare numbers, in µg/mL.

Given the molecule C=C1CC[C@@]2(O)[C@H]3Cc4ccc(O)c5c4[C@@]2(CCN3CC2CC2)[C@H]1O5 , what is its reported concentration at 72 h? 0

* * *

Experiment: clinical
Settings: human, in vivo, 3 mg, Mean plasma concentration of nalmefene, 3 mg + […] Intravail IN; Hour 48.0
MEASUREMENT LABEL: concentration at 48 h (ng/mL)
Numbers only, in ng/mL.

Quick one: concentration at 48 h of C=C1CC[C@@]2(O)[C@H]3Cc4ccc(O)c5c4[C@@]2(CCN3CC2CC2)[C@H]1O5 [Nalmefene] ? 0

* * *

Assay: clinical
Conditions: human, in vivo, 3 mg, Half-life, 3 mg IN; mean, N = 14
MEASUREMENT LABEL: half-life (h)
Give bare numbers, in h.

Reported half-life, compound C=C1CC[C@@]2(O)[C@H]3Cc4ccc(O)c5c4[C@@]2(CCN3CC2CC2)[C@H]1O5 [Nalmefene] : ____ 7.84

* * *

Experiment: clinical
Settings: human, in vivo, 1.5 mg, Mean plasma concentration of nalmefene, 1.5 mg IM; Hour 60.0
MEASUREMENT LABEL: concentration at 60 h (ng/mL)
One number for each entry, in ng/mL.

Given the compound C=C1CC[C@@]2(O)[C@H]3Cc4ccc(O)c5c4[C@@]2(CCN3CC2CC2)[C@H]1O5 , what is its reported concentration at 60 h? 0

* * *

Experiment: clinical
Details: human, in vivo, 1.5 mg, Mean plasma concentration of nalmefene, 1.5 mg IN; Hour 0.75
MEASUREMENT LABEL: concentration at […] (ng/mL)
One number for each entry, in ng/mL.

I'd like to know its concentration at […]. The molecule in question is C=C1CC[C@@]2(O)[C@H]3Cc4ccc(O)c5c4[C@@]2(CCN3CC2CC2)[C@H]1O5 [Nalmefene] 0.691

* * *

Experiment: clinical
Settings: human, in vivo, 3 mg, Mean plasma concentration of nalmefene, 3 mg + […] Intravail IN; Hour 6.0
MEASUREMENT LABEL: concentration at 6 h (ng/mL)
Give bare numbers, in ng/mL.

Record request: concentration at 6 h value, item C=C1CC[C@@]2(O)[C@H]3Cc4ccc(O)c5c4[C@@]2(CCN3CC2CC2)[C@H]1O5 0.91

* * *

Assay: clinical
Conditions: human, in vivo, 1.5 mg, Half-life, 1.5 mg IN; mean, N = 14
MEASUREMENT LABEL: half-life (h)
Answers are plain numbers, in h.

Which half-life value is on record for C=C1CC[C@@]2(O)[C@H]3Cc4ccc(O)c5c4[C@@]2(CCN3CC2CC2)[C@H]1O5 ? 6.74

* * *

Experiment: clinical
Conditions: human, in vivo, 3 mg, Tmax, 3 mg IN; median, N = 14
MEASUREMENT LABEL: Tmax (h)
Answers are plain numbers, in h.

What measured Tmax goes with C=C1CC[C@@]2(O)[C@H]3Cc4ccc(O)c5c4[C@@]2(CCN3CC2CC2)[C@H]1O5 ? 2

* * *

Experiment: clinical
Conditions: human, in vivo, 1.5 mg, Mean plasma concentration of nalmefene, 1.5 mg IM; Hour 36.0
MEASUREMENT LABEL: concentration at 36 h

Would you mind telling me what concentration at 36 h value was observed for C=C1CC[C@@]2(O)[C@H]3Cc4ccc(O)c5c4[C@@]2(CCN3CC2CC2)[C@H]1O5 ? 0 ng/mL

* * *

Assay: clinical
Conditions: human, in vivo, 3 mg, Mean plasma concentration of nalmefene, 3 mg IN; Hour 3.0
MEASUREMENT LABEL: concentration at 3 h (ng/mL)
Answers are plain numbers, in ng/mL.

Which value of concentration at 3 h has been reported for C=C1CC[C@@]2(O)[C@H]3Cc4ccc(O)c5c4[C@@]2(CCN3CC2CC2)[C@H]1O5 [Nalmefene] in the records? 1.53

* * *

Assay: clinical
Conditions: human, in vivo, 3 mg, Mean plasma concentration of nalmefene, 3 mg + […] Intravail IN; Hour 0.17
MEASUREMENT LABEL: concentration at […] (ng/mL)
Numbers only, in ng/mL.

Recorded concentration at […] of C=C1CC[C@@]2(O)[C@H]3Cc4ccc(O)c5c4[C@@]2(CCN3CC2CC2)[C@H]1O5 , please. 3.69

* * *

Assay: clinical
Settings: human, in vivo, 3 mg, Mean plasma concentration of nalmefene, 3 mg IN; Hour 72.0
MEASUREMENT LABEL: concentration at 72 h (ng/mL)
Give bare numbers, in ng/mL.

Please report the recorded concentration at 72 h for C=C1CC[C@@]2(O)[C@H]3Cc4ccc(O)c5c4[C@@]2(CCN3CC2CC2)[C@H]1O5 . 0
